Reported IC50 is given for each of the following molecules.
Test target: Bromodomain-containing protein 4 (Homo sapiens)
Test protocol: Inhibition of N-terminal His6-tagged recombinant human BRD4 (44 to 168 residues) expressed in Escherichia coli BL21 (DE3) incubated for 60 mins by TR-FRET assay
The reply should read as a number followed by its unit.

Challenge: Requested field: IC50. Item: [2H]C([2H])([2H])c1nnn(C)c1-c1cnc2c3ccc(C(C)(C)O)c(F)c3n([C@H](c3ccccc3)C3CCOCC3)c2c1
Response given: 1 nM

Challenge: Consider next the molecule [2H]C([2H])([2H])c1nnn(C)c1-c1cnc2c3c(F)cc(C(C)(C)O)cc3n([C@H](c3ccccc3)C3CCOCC3)c2c1 in the same way.
Response given: 8 nM

Challenge: Consider next the molecule [2H]C([2H])([2H])c1nnn(C)c1-c1cnc2c3cc(Cl)c(C(C)(C)O)cc3n([C@H](c3ccccc3)C3CCOCC3)c2c1 in the same way.
Response given: 2.2 nM

Challenge: Consider next the molecule Cc1nnn(C)c1-c1cnc2c3ccc(C(C)(O)C(F)(F)F)c(F)c3n([C@H](c3ccccc3)C3CCOCC3)c2c1 (some centres undefined) in the same way.
Response given: 3 nM
